Where do the numbers come from? From patent US20240392013A1.

- TEST TARGET: T1, recombinant human IL1RAP protein, extracellular domain His-tagged (Sino Biological, Cat #10121-H08H) (human, UniProt Q9NPH3 21-367)
- T1 construct: extracellular domain; Bought protein; The Octet analyte is printed as huIL1RAP-His (Sino Biological, lot MB08MA1301) without a catalogue number; also called huIL1RAP-His; hIL1RAP; not shown: His tag
- T1 sequence (looked up): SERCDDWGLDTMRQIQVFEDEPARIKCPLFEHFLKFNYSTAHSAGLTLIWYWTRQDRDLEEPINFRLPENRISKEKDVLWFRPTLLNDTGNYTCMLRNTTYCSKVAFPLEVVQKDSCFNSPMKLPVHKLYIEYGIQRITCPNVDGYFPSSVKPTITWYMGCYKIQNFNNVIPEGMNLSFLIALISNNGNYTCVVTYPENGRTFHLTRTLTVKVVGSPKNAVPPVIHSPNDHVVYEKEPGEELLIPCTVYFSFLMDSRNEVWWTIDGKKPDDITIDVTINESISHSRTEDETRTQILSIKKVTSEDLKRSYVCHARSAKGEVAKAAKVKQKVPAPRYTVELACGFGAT
- ASSAY TEXT: Octet BLI; mAb captured on anti-mouse IgG Fc sensor; huIL1RAP-His analyte
koff vs 0.0003 s⁻¹: less than gives fulfilled; not less than gives not fulfilled.

Below, 2 binders whose answers are already recorded.
>>> group_label("STLX2045 (antibody, V domains shown, Purified from hybridoma of immunized Alivamab mice; intact IgG; captured on anti-mouse IgG Fc sensors in Octet; kappa light chain; also called 74804_45C18A) VH: EVQLVESGGGLVKPGGSLRLACAATGFTFSNVWMSWVRQGSGKGLEWVGRIKSKADGGTIDYAAPVKGRFTISRDDSKNTLYLQMNSLKTEDTAMYYCTTGELLGFDYWGQGTLVTVSS VL: DIVMTQSPLSLPVTPGEPASISCRSGQSLLHSNGFNCLAWYLQKPGQSPQLLIYLGSNRASGVPDRFSGSGSGTDFTLKISRVEAEDVGVYYCMQTLQTPITFGQGTRLEIK")
"fulfilled"
>>> group_label("STLX2007 (antibody, V domains shown, Purified from hybridoma of immunized Alivamab mice; intact IgG; captured on anti-mouse IgG Fc sensors in Octet; kappa light chain; also called 74804_07K10A) VH: QVQLLQSGAEVKKPGSSVKVSCRASGGTFSIYAIDWVRQAPGQGLEWMGGIIPISGTENSAQNFQDRITITADKSTNTAYMELSSLRSEDTAVYYCARNGATSDAFDIWGQGTMVTVSS VL: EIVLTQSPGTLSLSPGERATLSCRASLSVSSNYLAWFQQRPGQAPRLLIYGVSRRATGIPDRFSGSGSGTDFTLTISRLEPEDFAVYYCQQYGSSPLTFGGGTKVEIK")
"fulfilled"

Exercise: Hi there! Is koff for STLX2012 (antibody, V domains shown, Purified from hybridoma of immunized Alivamab mice; intact IgG; captured on anti-mouse IgG Fc sensors in Octet; kappa light chain; also called 74804_12A21B) VH: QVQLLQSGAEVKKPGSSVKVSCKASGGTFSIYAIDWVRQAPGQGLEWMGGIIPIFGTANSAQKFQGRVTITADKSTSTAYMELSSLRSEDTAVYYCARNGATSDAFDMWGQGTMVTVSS VL: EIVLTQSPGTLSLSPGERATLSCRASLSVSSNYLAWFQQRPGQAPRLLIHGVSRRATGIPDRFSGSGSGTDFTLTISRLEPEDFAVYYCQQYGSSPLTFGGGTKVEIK below 0.0003 s⁻¹, do you know?
Solution: fulfilled

Exercise: Hi there! Is koff for STLX2029 (antibody, V domains shown, Purified from hybridoma of immunized Alivamab mice; intact IgG; captured on anti-mouse IgG Fc sensors in Octet; kappa light chain; also called 74804_29D13A) VH: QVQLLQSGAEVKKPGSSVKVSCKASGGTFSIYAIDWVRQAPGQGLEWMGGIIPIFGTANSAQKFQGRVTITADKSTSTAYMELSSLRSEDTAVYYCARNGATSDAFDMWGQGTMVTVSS VL: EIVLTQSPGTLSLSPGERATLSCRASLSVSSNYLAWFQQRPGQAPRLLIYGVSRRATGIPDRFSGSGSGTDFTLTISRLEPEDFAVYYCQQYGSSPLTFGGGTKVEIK below 0.0003 s⁻¹, do you know?
Solution: not fulfilled

Exercise: Hi there! Is koff for STLX2018 (antibody, V domains shown, Purified from hybridoma of immunized Alivamab mice; intact IgG; captured on anti-mouse IgG Fc sensors in Octet; kappa light chain; also called 74804_18L05A) VH: QVQLVQSGAEVKKPGASVKVSCKTSGYTFTSCCMHWVRQAPGQGLEWMGIINPSVGSTSYAQKFQGIVTMTRDTSTSTVYMELSSLRSEDTAVYYCAVDSSGSRYYYGMDVWGQGTTVTVSS VL: EIVMTQSPATLSVSPGERATLSCRASQSVRSNLAWYQQRPGQAPRLLIYGTSTRATGIPARFSGSGSGTEFTLTISSLQSEDFAVYYCQQYNYWPYTFGQGTKLEIK below 0.0003 s⁻¹, do you know?
Solution: not fulfilled
